Data credit: patent US9776972B2

Would you kindly list IC50 for each of these compounds?
The reply should be a number in µM, with the unit left off.

q: Param readout = IC50; param system = human PRMT3 (Homo sapiens, UniProt O60678); param query = "CNCCN(C)Cc1c[nH]nc1-c1ccc(N)cc1" ; response: value
Sequence (O60678 with tags, fused parts or gaps): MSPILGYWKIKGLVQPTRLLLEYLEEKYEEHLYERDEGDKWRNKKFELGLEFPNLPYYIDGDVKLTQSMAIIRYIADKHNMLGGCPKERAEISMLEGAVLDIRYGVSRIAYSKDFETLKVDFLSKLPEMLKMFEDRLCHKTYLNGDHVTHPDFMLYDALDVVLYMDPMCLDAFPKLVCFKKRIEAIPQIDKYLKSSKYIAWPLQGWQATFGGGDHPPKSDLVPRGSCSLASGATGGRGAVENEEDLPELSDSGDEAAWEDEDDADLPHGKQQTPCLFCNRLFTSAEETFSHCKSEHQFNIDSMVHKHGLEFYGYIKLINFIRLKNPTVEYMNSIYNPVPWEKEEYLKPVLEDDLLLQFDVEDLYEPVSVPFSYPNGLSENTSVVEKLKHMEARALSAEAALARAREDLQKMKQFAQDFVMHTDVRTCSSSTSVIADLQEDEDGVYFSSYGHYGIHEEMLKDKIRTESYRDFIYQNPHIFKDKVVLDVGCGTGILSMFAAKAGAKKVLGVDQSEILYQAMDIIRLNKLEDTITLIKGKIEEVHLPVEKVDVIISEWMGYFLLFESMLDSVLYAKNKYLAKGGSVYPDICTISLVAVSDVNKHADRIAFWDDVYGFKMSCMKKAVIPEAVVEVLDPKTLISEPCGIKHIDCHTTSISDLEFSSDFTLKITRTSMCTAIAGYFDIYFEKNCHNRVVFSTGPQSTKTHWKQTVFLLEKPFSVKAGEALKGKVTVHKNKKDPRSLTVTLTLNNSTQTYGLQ
a: 1.89

q: Param readout = IC50; param system = human PRMT3 (Homo sapiens, UniProt O60678); param query = "CC(C)Cc1ccc(-c2n[nH]cc2CN(C)CCN)cc1" ; response: value
a: 1.73

q: Param readout = IC50; param system = human PRMT3 (Homo sapiens, UniProt O60678); param query = "CN(CCN)Cc1c[nH]nc1-c1cccc(N(C)C)c1" ; response: value
a: 9.02

q: Param readout = IC50; param system = human PRMT3 (Homo sapiens, UniProt O60678); param query = "CN(CCN)Cc1c[nH]nc1-c1ccc(C(F)(F)F)cc1" ; response: value
a: 3.14

q: Param readout = IC50; param system = human PRMT3 (Homo sapiens, UniProt O60678); param query = "CN(CCN)Cc1c[nH]nc1-c1cc(F)cc(F)c1" ; response: value
a: 5.39

q: Param readout = IC50; param system = human PRMT3 (Homo sapiens, UniProt O60678); param query = "CNCCN(C)Cc1cnn(C)c1-c1ccc(F)cc1" ; response: value
a: 13.4
